Source of measurements: paper PMC7884259

Target: T1, ATAD2B bromodomain (residues 953–1085) (human, UniProt Q9ULI0 953-1085)
T1 sequence (looked up): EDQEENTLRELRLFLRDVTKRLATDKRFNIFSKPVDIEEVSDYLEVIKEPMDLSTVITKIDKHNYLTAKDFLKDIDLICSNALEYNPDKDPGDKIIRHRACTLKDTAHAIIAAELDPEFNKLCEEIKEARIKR
Assay: ITC
Where no end group is shown, it is not given here.
measured_attribute: Kd (µM)

The examples below pair each entry with its known result.
| binder | Kd / µM |
| --- | --- |
| SGRGK(Ac)GGKGL-NH2 [H4K5ac (res 1–10)] | 48 |
| SGRGKGGK(Ac)GL-NH2 [H4K8ac (res 1–10)] | 1160 |

A: SGRGK(Ac)GGK(Ac)GL-NH2 [H4K5acK8ac (res 1–10)]
B: SGRGK(Ac)QGGKARA-NH2 [H2AK5ac (res 1–12)]
Smaller Kd value, A vs B ? # respond with the chosen item's label A
(A: 28.1 µM, B: 42.5 µM)
